Target: D(2) dopamine receptor (Bos taurus) (UniProt P20288)
Sequence (P20288 whole entry): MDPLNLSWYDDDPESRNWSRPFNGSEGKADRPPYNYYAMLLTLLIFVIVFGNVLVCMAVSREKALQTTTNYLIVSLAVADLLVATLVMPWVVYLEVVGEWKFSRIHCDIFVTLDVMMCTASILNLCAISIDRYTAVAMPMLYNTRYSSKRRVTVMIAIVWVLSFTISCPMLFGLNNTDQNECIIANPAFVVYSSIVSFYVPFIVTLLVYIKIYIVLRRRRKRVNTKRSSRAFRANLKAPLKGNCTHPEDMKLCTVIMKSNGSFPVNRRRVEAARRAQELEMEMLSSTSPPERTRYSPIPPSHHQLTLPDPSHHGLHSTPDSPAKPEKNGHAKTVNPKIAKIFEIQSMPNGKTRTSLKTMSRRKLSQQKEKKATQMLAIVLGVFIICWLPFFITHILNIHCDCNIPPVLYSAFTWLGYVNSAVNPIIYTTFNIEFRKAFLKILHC
Assay: Stimulation of [3H]NPA binding to dopamine D2 receptor in bovine striatal membranes
Type: cell membranes
Conditions: Striatum, Membrane
Active and inactive are the calls of the source. The rule behind the calls is not given here. Where a SMILES comes first, the peptide text is derived from it.
READOUT_NAME: Activity

1. NC(=O)CN1CC[C@@H](NC(=O)[C@@H]2CCCN2)C1=O	51.1%
2. [N-]=[N+]=Nc1ccc(C(=O)N[C@@H]2CN[C@H](C(=O)N[C@@H]3CCN(CC(N)=O)C3=O)C2)cc1	Active
3. [N-]=[N+]=Nc1ccc(C(=O)N[C@H]2CN[C@H](C(=O)N[C@@H]3CCN(CC(N)=O)C3=O)C2)c(O)c1	Active
4. CC(C)C[C@H](NC(=O)[C@@H]1CCCN1)C(=O)NCC(N)=O (H-Pro-Leu-Gly-NH2)	24.5%
5. [N-]=[N+]=Nc1ccc(C(=O)NCCNC(=O)CN2CC[C@@H](NC(=O)[C@@H]3CCCN3)C2=O)cc1	Active
6. [N-]=[N+]=Nc1ccc(C(=O)N[C@H]2CN[C@H](C(=O)N[C@@H]3CCN(CC(N)=O)C3=O)C2)cc1	Active
7. [N-]=[N+]=Nc1cc(O)c(C(=O)N[C@@H]2CN[C@H](C(=O)N[C@@H]3CCN(CC(N)=O)C3=O)C2)cc1I	Active
8. [N-]=[N+]=Nc1ccc(C(=O)NCCNC(=O)CN2CC[C@@H](NC(=O)[C@@H]3CCCN3)C2=O)c(O)c1	Active
9. [N-]=[N+]=Nc1ccc(C(=O)N[C@@H]2CN[C@H](C(=O)N[C@@H]3CCN(CC(N)=O)C3=O)C2)c(O)c1	Active
10. [N-]=[N+]=Nc1cc(O)c(C(=O)NCCNC(=O)CN2CC[C@@H](NC(=O)[C@@H]3CCCN3)C2=O)cc1I	Active
